experiment.notes: Composite formation of AlGltn/TSC matrix containing amino acid derivative after immersion in water
Format: physicochemical
reported.conditions: 100 mM amino acid derivative, 20 mM TSC, water at 4° C. for one day
observed.property: Composite formation

Here's what some known entries look like.
{"compound": "CC(=O)N[C@@H](Cc1ccc(O)cc1)C(N)=O", "Composite formation": "Absent"}
{"compound": "O=C(N[C@@H](Cc1ccccc1)C(=O)O)OCC1c2ccccc2-c2ccccc21", "Composite formation": "Present"}
{"compound": "CC(=O)NC(Cc1c[nH]c2ccccc12)C(N)=O (stereo not drawn)", "Composite formation": "Absent"}
{"compound": "CC[C@H](C)[C@H](NC(=O)OCC1c2ccccc2-c2ccccc21)C(=O)O", "Composite formation": "Present"}
{"compound": "CC(C)(C)OC[C@H](NC(=O)OCC1c2ccccc2-c2ccccc21)C(=O)O", "Composite formation": "Present"}

Lab note: next compound to report on.
What value of Composite formation has been reported for the following compound? O=C(N[C@@H](Cc1c[nH]c2ccccc12)C(=O)O)OCC1c2ccccc2-c2ccccc21
Present
